# Tested on: Plasmodium falciparum
# Assay explanation: GSK_TCMDC: Inhibition of Plasmodium falciparum 3D7 in whole red blood cells, using parasite LDH activity as an index of growth. Test compounds present at 2uM
# Type: functional
Readout kind: Inhibition

{"Molecule": "Cc1ccccc1CN1CCCN(Cc2ccc(C(=O)Nc3ccc(Cl)cc3)cc2)CC1.O=C(O)C(F)(F)F", "Readout kind": "Inhibition", "Result": "93%"}
{"Molecule": "CCCn1c(=N)c(C(=O)NCCc2ccccc2)cc2c(=O)n3cccc(C)c3nc21", "Readout kind": "Inhibition", "Result": "100%"}
{"Molecule": "Cl.O=C(O)CCCN1CCCC(=C(c2ccccc2)c2ccccc2)C1", "Readout kind": "Inhibition", "Result": "82%"}
{"Molecule": "CC12CCC(=O)N1C(C(=O)Nc1cccc(C(=O)Nc3cccc(C(F)(F)F)c3)c1)CS2 (centres undefined)", "Readout kind": "Inhibition", "Result": "92%"}
{"Molecule": "Oc1ccccc1CN1CCCC(COC(c2ccc(F)cc2)c2ccc(F)cc2)C1 (centres undefined)", "Readout kind": "Inhibition", "Result": "97%"}
{"Molecule": "COc1ccc(Nc2ncc3c(-c4cccc(NC(=O)Cc5cccc(O)c5)c4)c[nH]c3n2)cc1OC", "Readout kind": "Inhibition", "Result": "100%"}
{"Molecule": "Cc1cccc(-c2nc3cc(NC(=O)c4ccc([N+](=O)[O-])o4)ccc3o2)c1", "Readout kind": "Inhibition", "Result": "94%"}
{"Molecule": "CN(C)CCNc1cc(-c2cccnc2)nc(-c2ccncc2)n1", "Readout kind": "Inhibition", "Result": "100%"}
{"Molecule": "O=C(NC1CCN(Cc2cccc(C(F)(F)F)c2)CC1)c1ccc(-c2cccc(Cl)c2)s1.O=C(O)C(F)(F)F", "Readout kind": "Inhibition", "Result": "89%"}
{"Molecule": "CCCC(C(CC1CCC(C)CC1)C(=O)NC(CCCNc1ncccn1)C(=O)Nc1nccs1)N(O)C=O (centres undefined)", "Readout kind": "Inhibition", "Result": "98%"}
{"Molecule": "Cc1cc(NC(=O)NCCN2CCC(NS(=O)(=O)c3ccc(C(F)(F)F)cc3)C2)c2ccccc2n1.O=C(O)C(F)(F)F (centres undefined)", "Readout kind": "Inhibition", "Result": "96%"}
{"Molecule": "COc1cc(NC(=O)Nc2cc(C)nc3ccccc23)cc(OC)c1", "Readout kind": "Inhibition", "Result": "100%"}
{"Molecule": "CCc1nc2c(cnn2CC)c(NC2CCOCC2)c1CNC(=O)c1ccoc1C", "Readout kind": "Inhibition", "Result": "97%"}
{"Molecule": "CCOC(=O)CCCc1cc(NC2CCN(C)CC2)nc(Nc2ccc(OC)cc2)n1", "Readout kind": "Inhibition", "Result": "99%"}
{"Molecule": "COc1cc(SC)ccc1C(=O)N1CC(C)CC(C)C1 (centres undefined)", "Readout kind": "Inhibition", "Result": "98%"}
{"Molecule": "O=C(NC1CCCC1)c1ccc(N2CCC(NCc3cc4cc(Cl)ccc4[nH]3)CC2)cc1", "Readout kind": "Inhibition", "Result": "91%"}
{"Molecule": "O=C(Nc1ccc(C(F)(F)F)cc1)c1ccc(S(=O)(=O)NC2CCCN(CC3CCCCC3)C2)cc1.O=C(O)C(F)(F)F (centres undefined)", "Readout kind": "Inhibition", "Result": "99%"}
{"Molecule": "COc1ccc2nccc([C@@H](O)CN3CCC(CO)(NCc4cc5ccccc5o4)CC3)c2c1.O=C(O)C(=O)O", "Readout kind": "Inhibition", "Result": "85%"}
{"Molecule": "O=C(/C=C/c1ccc(Cl)c(Cl)c1)NCCCCCN1CCCN(C(=O)Nc2cccc(F)c2)CC1", "Readout kind": "Inhibition", "Result": "97%"}

----------
# System: Plasmodium falciparum
# Assay explanation: GSK_TCMDC: Inhibition of Plasmodium falciparum Dd2 in whole red blood cells, using parasite LDH activity as an index of growth. Test compounds present at 2uM
# Assay type: functional
Labelling: Inhibition reported below 90% becomes condition met; at or above becomes condition not met.

{"Compound": "N#Cc1ccc(N(CCOc2ccc3c(c2)CCC(=O)N3)Cc2ccccc2C(F)(F)F)cc1C(F)(F)F", "Target system": "Plasmodium falciparum", "Discrete label": "condition met"}
{"Compound": "Cc1ccc(-c2cc(C(=O)Nc3ccc(S(=O)(=O)N4CCCC(C)C4)cc3)[nH]n2)c(O)c1 (stereo not drawn)", "Target system": "Plasmodium falciparum", "Discrete label": "condition not met"}
{"Compound": "Cn1nc(-c2cccc(CNC3CCc4ccccc43)c2)c2cnc(NC3CCCC3)nc21 (stereo not drawn)", "Target system": "Plasmodium falciparum", "Discrete label": "condition met"}
{"Compound": "Cc1ccc2c(c1[N+](=O)[O-])N=NCC2Oc1ccccc1 (stereo not drawn)", "Target system": "Plasmodium falciparum", "Discrete label": "condition met"}
{"Compound": "OC(CNC1CCCCC1)Cn1c2ccc(I)cc2c2cc(I)ccc21 (stereo not drawn)", "Target system": "Plasmodium falciparum", "Discrete label": "condition not met"}
{"Compound": "CCN(CC)CCCC(C)Nc1ccnc2[nH]c3ccccc3c12 (stereo not drawn)", "Target system": "Plasmodium falciparum", "Discrete label": "condition met"}
{"Compound": "CCOc1cc(C)ccc1NC1CCN(CCCCNC(=O)c2ccc(NC(=O)c3ccc(Cl)cc3)cc2)CC1", "Target system": "Plasmodium falciparum", "Discrete label": "condition met"}
{"Compound": "Cc1cc(N2CCCC2)nc(Nc2ccc(NC(=O)c3ccccc3C)cc2)n1", "Target system": "Plasmodium falciparum", "Discrete label": "condition met"}
{"Compound": "CCCCNC(=O)[C@H](CC1CCCCC1)NC(=O)c1ccc(O)c(-c2cccc(C(F)(F)F)c2)c1", "Target system": "Plasmodium falciparum", "Discrete label": "condition met"}
{"Compound": "c1ccc(OCCCCN2CCCCC2)cc1", "Target system": "Plasmodium falciparum", "Discrete label": "condition met"}
{"Compound": "CS(=O)(=O)NCCCNCc1cccc(-c2ccc(-c3nc4cc(C(F)(F)F)ccc4[nH]3)s2)c1.O=C(O)C(F)(F)F", "Target system": "Plasmodium falciparum", "Discrete label": "condition met"}
{"Compound": "O=C(c1ccc(Cl)cc1Cl)N1CCCC(C(F)(F)F)C1 (stereo not drawn)", "Target system": "Plasmodium falciparum", "Discrete label": "condition met"}
{"Compound": "O=C(O)C1Cc2c([nH]c3ccccc23)C(c2ccc(Cl)cc2Cl)N1 (stereo not drawn)", "Target system": "Plasmodium falciparum", "Discrete label": "condition not met"}
{"Compound": "CC(C)(C)C1=CC(=NNC(=O)c2ccncc2)C=C(C(C)(C)C)C1=O", "Target system": "Plasmodium falciparum", "Discrete label": "condition not met"}
{"Compound": "Br.O=C(CNc1ccncc1)c1c[nH]c2ccccc12", "Target system": "Plasmodium falciparum", "Discrete label": "condition met"}
{"Compound": "CC(C)n1c(C2CCN(CC3CCN(C(=O)/C=C/c4ccc(Cl)c(Cl)c4)CC3)CC2)nc2ccccc21", "Target system": "Plasmodium falciparum", "Discrete label": "condition met"}
{"Compound": "CCN(CCCN1CCCCC1)c1cc(C)nc(Nc2cccc(OC(F)(F)F)c2)n1.O=C(O)C(F)(F)F", "Target system": "Plasmodium falciparum", "Discrete label": "condition not met"}
{"Compound": "C=C(NC(=O)C1CCCCC1)C(=O)OC", "Target system": "Plasmodium falciparum", "Discrete label": "condition met"}
{"Compound": "O=C(Nc1ccc(F)cc1)NC1CCN(c2ccnc3cc(Cl)ccc23)C1.O=C(O)C(F)(F)F (stereo not drawn)", "Target system": "Plasmodium falciparum", "Discrete label": "condition met"}
{"Compound": "COc1ccc2nccc([C@@H](O)CN3CCC(NC(=O)/C=C/c4cc(F)cc(NC(C)=O)c4)CC3)c2c1", "Target system": "Plasmodium falciparum", "Discrete label": "condition met"}
{"Compound": "Cc1cnc(C(=O)Nc2cccc(-c3cccc(-c4nc5cc(F)ccc5[nH]4)c3)c2)cn1", "Target system": "Plasmodium falciparum", "Discrete label": "condition met"}
{"Compound": "COc1ccc(C(=O)NCc2ccccc2-c2ccc(C(C)(C)C)cc2)cc1O", "Target system": "Plasmodium falciparum", "Discrete label": "condition not met"}
{"Compound": "CC(C)COc1ccc(Cl)cc1Cc1nc(-c2nc3ccc(N4CCN(C)CC4)nc3[nH]2)cs1.Cl", "Target system": "Plasmodium falciparum", "Discrete label": "condition met"}
{"Compound": "N#CCCN1CCN(Cc2ccc(-c3cccc(-c4nc5cc(F)ccc5[nH]4)c3)cc2)CC1.O=C(O)C(F)(F)F", "Target system": "Plasmodium falciparum", "Discrete label": "condition met"}
{"Compound": "CCN1CCC(N(Cc2ccc(-c3ccc(C(F)(F)F)cc3)cc2)C(=O)Cn2c(CCc3cccc(F)c3F)cc(=O)c3ccc(OCc4ccccc4)cc32)CC1.O=C(O)C(O)C(O)C(=O)O", "Target system": "Plasmodium falciparum", "Discrete label": "condition met"}
{"Compound": "CC(=O)Nc1ccc(C(=O)Nc2ccc(-c3cccc(-c4nc5ccccc5[nH]4)c3)cc2)cn1", "Target system": "Plasmodium falciparum", "Discrete label": "condition met"}
{"Compound": "Cc1ccccc1C1CCN(C2CCC(NC(=O)c3cc(-c4ccccc4)oc3C)CC2)CC1 (stereo not drawn)", "Target system": "Plasmodium falciparum", "Discrete label": "condition met"}
{"Compound": "COc1ccc2cc(-c3nc(-c4c(Cl)cccc4Cl)[nH]c3-c3ccnc(NCCCN4CCN(C)CC4)c3)ccc2c1.O=C(O)C(F)(F)F", "Target system": "Plasmodium falciparum", "Discrete label": "condition met"}
{"Compound": "O=C(Nc1ccc(Cl)cn1)c1sc2ccccc2c1O", "Target system": "Plasmodium falciparum", "Discrete label": "condition met"}
{"Compound": "O=C(Nc1c(F)cccc1F)c1cccc(-c2nn3ccccc3c2-c2ccnc(Nc3cccc(-c4cnco4)c3)n2)c1", "Target system": "Plasmodium falciparum", "Discrete label": "condition not met"}
{"Compound": "Cc1cccc2nc(-c3cccc(-c4cccc(NC(=O)c5cnccc5C(F)(F)F)c4)c3)[nH]c12", "Target system": "Plasmodium falciparum", "Discrete label": "condition met"}
{"Compound": "Cc1c(CCNC(=O)CCCN2CC(C)CC(C)C2)c2ccccc2n1C.Cl (stereo not drawn)", "Target system": "Plasmodium falciparum", "Discrete label": "condition not met"}
{"Compound": "Cc1ccc(NC(=S)NC2CCN(CCCCCNC(=O)/C=C/c3ccc(Cl)c(Cl)c3)CC2)cc1Cl", "Target system": "Plasmodium falciparum", "Discrete label": "condition met"}
{"Compound": "OC(CNCc1ccccc1OCc1ccccc1)c1cccc(Cl)c1 (stereo not drawn)", "Target system": "Plasmodium falciparum", "Discrete label": "condition not met"}
{"Compound": "CN(C)c1ccc(CN2CCC(NC(=O)c3ccc(-c4ccc(N(C)C)cc4)s3)CC2)cc1.O=C(O)C(F)(F)F", "Target system": "Plasmodium falciparum", "Discrete label": "condition met"}
{"Compound": "CC(CCc1ccccc1)NCC(O)c1ccc2c3c(cccc13)C(=O)N2C.Cl (stereo not drawn)", "Target system": "Plasmodium falciparum", "Discrete label": "condition met"}
{"Compound": "Cl.N=C(N)c1ccc2[nH]c(-c3cc4cc(C(=N)N)ccc4o3)cc2c1", "Target system": "Plasmodium falciparum", "Discrete label": "condition met"}
{"Compound": "COc1cc(CN2CCC(C(=O)Nc3ccc(-c4cccc(C)c4)cc3)CC2)ccc1O", "Target system": "Plasmodium falciparum", "Discrete label": "condition met"}
